Listing of entries alongside the reported log10 GI50.
System: WiDr cells
assay.text: WiDr CellTiter-Glo 3D cell proliferation assay
Assay type: cell-based
measurement.parameters: Homo sapiens; WiDr cells, 3D proliferation; read-out: 3D WiDr pGI50 (converted)
readout: log10 GI50 (log10 of the value in nM)

> print(dat)
                                    compound  endpoint.result
 1  CC1CC1C(=O)Nc1cc(Oc2ccc3c(c2)CC(c2nc(-c4ccccc4)c[nH]2)CO3)ccn1 (stereo not shown)             2.82
 2  c1ccc(-c2c[nH]c(C3COc4ccc(Oc5ccnc(Nc6ccccn6)c5)cc4C3)n2)cc1 (stereo not shown)             3.28
 3  O=C(CN1CC[C@@H](O)C1)Nc1cc(Oc2ccc3c(c2)CC(c2nc(-c4ccccc4)c[nH]2)CO3)ccn1 (stereo partly shown)             3.80
 4  Cn1nc(C(F)(F)F)cc1-c1c[nH]c(C2COc3ccc(Oc4ccnc5c4CCC(=O)N5)cc3C2)n1 (stereo not shown)             2.89
 5  CC(C)(C)CCc1c[nH]c(C2COc3ccc(Oc4ccnc5c4CCC(=O)N5)cc3C2)n1 (stereo not shown)             1.58
 6  O=C1CCc2c(Oc3ccc4c(c3)CC(c3nc(-c5cncc(C(F)(F)F)c5)c[nH]3)CO4)ccnc2N1 (stereo not shown)             2.73
 7  CCc1cc(-c2c[nH]c(C3COc4ccc(Oc5ccnc6c5CCC(=O)N6)cc4C3)n2)ccn1 (stereo not shown)             3.07
 8  COc1csc(-c2c[nH]c(C3COc4ccc(Oc5ccnc6c5CCC(=O)N6)cc4C3)n2)c1 (stereo not shown)             2.71
 9  COc1cc(-c2c[nH]c(C3COc4ccc(Oc5ccnc6c5CCC(=O)N6)cc4C3)n2)ccn1 (stereo not shown)             3.06
10  CC(C)CCc1c[nH]c(C2COc3ccc(Oc4ccnc5c4CCC(=O)N5)cc3C2)n1 (stereo not shown)             2.10
11  O=C1CCc2c(Oc3ccc4c(c3)CC(c3nc5ccncc5[nH]3)CO4)ccnc2N1 (stereo not shown)             4.41
12  Cn1nc(C2CC2)cc1-c1c[nH]c(C2COc3ccc(Oc4ccnc5c4CCC(=O)N5)cc3C2)n1 (stereo not shown)             4.18
13  O=C1CCc2c(Oc3ccc4c(c3)CC(c3nc(-c5ccnc(C(F)F)c5)c[nH]3)CO4)ccnc2N1 (stereo not shown)             2.49
14  CN1CCC(C(=O)Nc2cc(Oc3ccc4c(c3)CC(c3nc(-c5ccccc5)c[nH]3)CO4)ccn2)CC1 (stereo not shown)             3.14
15  COc1ccsc1-c1c[nH]c(C2COc3ccc(Oc4ccnc5c4CCC(=O)N5)cc3C2)n1 (stereo not shown)             1.73
16  O=C(Nc1cc(Oc2ccc3c(c2)CC(c2nc(-c4ccccc4)c[nH]2)CO3)ccn1)C1CC1(F)F (stereo not shown)             2.10

* * *

Listing of entries alongside the reported hPPB (% free).
assay.text: Plasma protein binding assay, human plasma (hPPB)
Assay type: in vitro ADME
measurement.parameters: 5 μM, equilibrium dialysis 4 hours at 37° C.
readout: hPPB (% free)

> print(dat)
                                    compound  inequality.operator  endpoint.result
 1  Cn1nc(C(F)(F)F)cc1-c1c[nH]c(C2COc3ccc(Oc4ccnc5c4CCC(=O)N5)cc3C2)n1 (stereo not drawn)                    =              0.7
 2  CN1CCC(C(=O)Nc2cc(Oc3ccc4c(c3)CC(c3nc(-c5ccccc5)c[nH]3)CO4)ccn2)CC1 (stereo not drawn)                    =              0.5
 3  O=C1CCc2c(Oc3ccc4c(c3)CN(c3nc5cc(C(F)(F)F)ccc5[nH]3)CC4)ccnc2N1                    =              0.3
 4  Cn1ncc2ccc(-c3c[nH]c(C4COc5ccc(Oc6ccnc7c6CCC(=O)N7)cc5C4)n3)cc21 (stereo not drawn)                    =              0.1
 5  CC1CC1C(=O)Nc1cc(Oc2ccc3c(c2)CC(c2nc(-c4ccccc4)c[nH]2)CO3)ccn1 (stereo not drawn)                    <              0.1
 6  Cc1ccc(-c2c[nH]c(C3COc4ccc(Oc5ccnc6c5CCC(=O)N6)cc4C3)n2)s1 (stereo not drawn)                    =              0.2
 7  CN1CCN(CC(=O)Nc2cc(Oc3ccc4c(c3)CC(c3nc(-c5ccccc5)c[nH]3)CO4)ccn2)CC1 (stereo not drawn)                    =              1.5
 8  Cc1cc(-c2c[nH]c(C3COc4ccc(Oc5ccnc6c5CCC(=O)N6)cc4C3)n2)n(C2CC2)n1 (stereo not drawn)                    =              1.2
 9  CC(C)CCc1c[nH]c(C2COc3ccc(Oc4ccnc5c4CCC(=O)N5)cc3C2)n1 (stereo not drawn)                    =             0.13
10  COc1cc(-c2c[nH]c(C3COc4ccc(Oc5ccnc6c5CCC(=O)N6)cc4C3)n2)ccn1 (stereo not drawn)                    =              1.9
11  Cc1cc(-c2c[nH]c(C3COc4ccc(Oc5ccnc6c5CCC(=O)N6)cc4C3)n2)n(CC(F)(F)F)n1 (stereo not drawn)                    =              1.0
12  COc1csc(-c2c[nH]c(C3COc4ccc(Oc5ccnc6c5CCC(=O)N6)cc4C3)n2)c1 (stereo not drawn)                    =             0.23
13  O=C1CCc2c(Oc3ccc4c(c3)CC(c3nc(-c5ccnc(C(F)F)c5)c[nH]3)CO4)ccnc2N1 (stereo not drawn)                    =              1.6
14  c1ccc(-c2c[nH]c(C3COc4ccc(Oc5ccnc(Nc6ccccn6)c5)cc4C3)n2)cc1 (stereo not drawn)                    <              0.1
15  O=C1CCc2c(Oc3ccc4c(c3)CC(c3nc(-c5cncc(C(F)F)c5)c[nH]3)CO4)ccnc2N1 (stereo not drawn)                    =              1.0
